Origin of the recorded values: ChEMBL document CHEMBL1914402

Here's what we have: IC50 numbers for Cytochrome P450 2C9 (Homo sapiens, UniProt P11712).

Illustrative cases are given below, each with its answer.
CN(C)CCN1CCCc2cc(NC(=N)c3cccs3)ccc21 ... > 100 µM
N=C(Nc1ccc2c(c1)CCCN2C1CCNCC1)c1cccs1 ... > 100 µM

Then this molecule:
Query: Query the reported IC50 for Cytochrome P450 2C9 (Homo sapiens, UniProt P11712); item: CN(C)CCN1C(=O)CCc2cc(NC(=N)c3cccs3)ccc21
Result: > 100 µM

---

Here's what we have: IC50 numbers for UniProt P08684.
Sequence (P08684 whole entry): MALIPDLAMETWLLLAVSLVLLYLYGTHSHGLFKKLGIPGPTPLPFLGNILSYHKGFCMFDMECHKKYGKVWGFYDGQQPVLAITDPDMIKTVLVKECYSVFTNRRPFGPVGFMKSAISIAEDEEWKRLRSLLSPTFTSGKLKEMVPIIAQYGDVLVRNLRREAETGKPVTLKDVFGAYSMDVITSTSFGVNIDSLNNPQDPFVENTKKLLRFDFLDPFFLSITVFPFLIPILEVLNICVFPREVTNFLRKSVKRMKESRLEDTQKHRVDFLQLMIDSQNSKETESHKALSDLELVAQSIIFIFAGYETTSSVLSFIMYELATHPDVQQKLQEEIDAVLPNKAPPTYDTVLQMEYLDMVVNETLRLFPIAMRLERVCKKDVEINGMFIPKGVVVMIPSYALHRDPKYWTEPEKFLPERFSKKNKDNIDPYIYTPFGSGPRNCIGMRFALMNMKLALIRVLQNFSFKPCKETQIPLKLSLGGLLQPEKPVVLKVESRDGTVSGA

Illustrative cases are given below, each with its answer.
CN(C)CCN1C(=O)CCc2cc(NC(=N)c3cccs3)ccc21 ... > 100 µM
N=C(Nc1ccc2c(c1)CCCN2C1CCNCC1)c1cccs1 ... > 100 µM

Query: Returns the measured IC50 for the input molecule. Input: CN(C)CCN1CCCc2cc(NC(=N)c3cccs3)ccc21
Result: > 100 µM

---

- Tested target: UniProt:P33261
- Sequence (P33261 whole entry): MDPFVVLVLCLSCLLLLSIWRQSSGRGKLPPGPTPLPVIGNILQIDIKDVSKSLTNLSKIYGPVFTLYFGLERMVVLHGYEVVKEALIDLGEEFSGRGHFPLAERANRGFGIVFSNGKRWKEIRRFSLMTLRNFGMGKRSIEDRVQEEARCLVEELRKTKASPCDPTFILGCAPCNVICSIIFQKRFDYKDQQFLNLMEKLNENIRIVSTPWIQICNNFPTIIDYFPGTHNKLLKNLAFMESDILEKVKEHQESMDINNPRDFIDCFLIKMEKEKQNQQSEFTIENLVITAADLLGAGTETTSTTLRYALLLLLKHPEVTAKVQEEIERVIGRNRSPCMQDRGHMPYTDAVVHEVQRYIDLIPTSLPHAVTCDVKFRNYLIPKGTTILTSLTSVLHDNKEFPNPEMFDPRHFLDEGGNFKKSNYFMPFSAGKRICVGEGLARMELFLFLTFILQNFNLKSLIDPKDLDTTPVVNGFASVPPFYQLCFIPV
Measured parameter: IC50 (µM)
Value expressed in µM; do not type the unit.

Query: Query the reported IC50 for UniProt:P33261; item: N=C(Nc1ccc2c(c1)CCCN2C1CCNCC1)c1cccs1
Result: 47.1

---

- Tested target: Nitric oxide synthase 3 (Homo sapiens)
- Sequence (P29474 whole entry): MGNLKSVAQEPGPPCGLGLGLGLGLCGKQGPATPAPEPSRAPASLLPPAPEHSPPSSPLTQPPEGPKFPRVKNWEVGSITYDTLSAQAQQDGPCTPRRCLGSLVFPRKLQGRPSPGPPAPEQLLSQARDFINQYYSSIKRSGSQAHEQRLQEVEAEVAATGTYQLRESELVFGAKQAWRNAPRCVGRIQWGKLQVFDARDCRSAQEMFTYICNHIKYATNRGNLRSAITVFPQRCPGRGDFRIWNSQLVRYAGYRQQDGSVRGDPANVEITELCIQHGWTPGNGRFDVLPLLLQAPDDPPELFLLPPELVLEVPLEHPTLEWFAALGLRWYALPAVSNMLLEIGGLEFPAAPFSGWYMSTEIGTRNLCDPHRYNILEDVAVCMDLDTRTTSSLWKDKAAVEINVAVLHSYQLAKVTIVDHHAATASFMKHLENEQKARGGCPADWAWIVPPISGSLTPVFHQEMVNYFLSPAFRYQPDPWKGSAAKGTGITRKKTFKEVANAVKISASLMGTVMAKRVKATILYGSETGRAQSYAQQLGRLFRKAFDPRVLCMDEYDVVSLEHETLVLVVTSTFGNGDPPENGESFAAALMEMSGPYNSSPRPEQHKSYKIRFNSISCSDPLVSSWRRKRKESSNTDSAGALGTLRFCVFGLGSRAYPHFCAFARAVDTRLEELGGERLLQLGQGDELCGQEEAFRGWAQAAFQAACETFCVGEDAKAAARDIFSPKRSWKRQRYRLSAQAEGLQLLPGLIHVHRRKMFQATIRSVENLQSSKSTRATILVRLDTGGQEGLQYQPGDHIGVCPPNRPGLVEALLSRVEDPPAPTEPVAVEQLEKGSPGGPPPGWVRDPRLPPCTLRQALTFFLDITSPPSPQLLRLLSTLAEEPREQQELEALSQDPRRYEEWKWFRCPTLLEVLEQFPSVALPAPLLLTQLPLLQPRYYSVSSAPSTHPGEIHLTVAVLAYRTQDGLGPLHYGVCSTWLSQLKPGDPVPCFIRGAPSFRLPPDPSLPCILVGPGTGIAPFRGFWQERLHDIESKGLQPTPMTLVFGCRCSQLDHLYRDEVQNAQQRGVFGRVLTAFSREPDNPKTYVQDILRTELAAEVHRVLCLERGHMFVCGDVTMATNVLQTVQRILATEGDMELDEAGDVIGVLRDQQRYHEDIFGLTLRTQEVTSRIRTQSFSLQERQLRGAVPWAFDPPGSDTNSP
- Assay: Inhibition of human recombinant eNOS expressed in baculovirus infected Sf9 cells assessed as conversion of [3H]L-arginine to [3H]L-citrulline preincubated for 15 mins measured after 45 mins by liquid scintillation counting
- Assay type: cell-based
As shown below, each of these molecules has a reported IC50 value.
Value expressed in µM; do not type the unit.

Illustrative cases are given below, each with its answer.
CN1CCC(N2CCCc3cc(NC(=N)c4cccs4)ccc32)CC1 ... 42.7
N=C(Nc1ccc2c(c1)CCCN2C1CCNCC1)c1cccs1 ... 119

Then this molecule:
Query: Returns the measured IC50 for the input molecule. Input: N=C(Nc1ccc2c(c1)CCCN2CCCN1CCCC1)c1cccs1
Result: 9.5

---

- Tested target: Nitric oxide synthase 1 (Homo sapiens, UniProt P29475)
- Sequence (P29475 whole entry): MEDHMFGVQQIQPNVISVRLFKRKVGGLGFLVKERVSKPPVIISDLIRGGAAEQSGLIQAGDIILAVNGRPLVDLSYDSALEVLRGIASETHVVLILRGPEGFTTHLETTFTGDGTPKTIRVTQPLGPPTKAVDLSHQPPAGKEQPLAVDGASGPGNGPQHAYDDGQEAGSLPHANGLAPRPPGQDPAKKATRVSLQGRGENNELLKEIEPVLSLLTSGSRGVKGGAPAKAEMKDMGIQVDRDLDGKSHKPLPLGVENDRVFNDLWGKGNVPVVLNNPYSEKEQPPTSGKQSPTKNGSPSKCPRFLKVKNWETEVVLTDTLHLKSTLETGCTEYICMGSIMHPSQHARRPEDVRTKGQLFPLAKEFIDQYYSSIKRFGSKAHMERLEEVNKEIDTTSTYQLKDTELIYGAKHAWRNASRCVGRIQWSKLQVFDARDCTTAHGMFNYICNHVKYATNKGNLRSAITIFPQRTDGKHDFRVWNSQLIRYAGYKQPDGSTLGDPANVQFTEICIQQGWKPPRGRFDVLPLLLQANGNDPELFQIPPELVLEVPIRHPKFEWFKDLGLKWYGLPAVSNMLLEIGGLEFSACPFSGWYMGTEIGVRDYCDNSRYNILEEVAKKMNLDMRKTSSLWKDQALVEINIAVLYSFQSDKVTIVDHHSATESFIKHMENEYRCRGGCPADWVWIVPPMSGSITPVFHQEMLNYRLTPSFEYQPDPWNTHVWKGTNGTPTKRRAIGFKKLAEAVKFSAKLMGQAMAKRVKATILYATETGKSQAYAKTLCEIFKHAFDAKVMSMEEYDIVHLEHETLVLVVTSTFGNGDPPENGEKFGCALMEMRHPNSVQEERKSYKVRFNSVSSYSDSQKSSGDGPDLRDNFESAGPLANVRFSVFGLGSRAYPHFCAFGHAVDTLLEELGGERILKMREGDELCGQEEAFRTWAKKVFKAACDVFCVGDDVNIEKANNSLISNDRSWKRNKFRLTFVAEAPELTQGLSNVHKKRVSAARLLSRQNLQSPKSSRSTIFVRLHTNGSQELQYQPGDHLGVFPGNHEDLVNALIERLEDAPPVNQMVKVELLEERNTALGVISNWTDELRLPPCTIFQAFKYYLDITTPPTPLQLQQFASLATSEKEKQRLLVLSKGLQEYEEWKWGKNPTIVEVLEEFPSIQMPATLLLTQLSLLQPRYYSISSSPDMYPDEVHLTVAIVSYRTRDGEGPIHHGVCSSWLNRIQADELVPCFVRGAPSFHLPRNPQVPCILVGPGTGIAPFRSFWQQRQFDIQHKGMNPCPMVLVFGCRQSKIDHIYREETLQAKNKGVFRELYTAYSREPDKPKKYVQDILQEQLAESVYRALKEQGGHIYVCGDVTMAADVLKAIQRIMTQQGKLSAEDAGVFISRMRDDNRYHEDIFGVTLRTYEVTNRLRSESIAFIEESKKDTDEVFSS
- Assay: Inhibition of human recombinant nNOS expressed in baculovirus infected Sf9 cells assessed as conversion of [3H]L-arginine to [3H]L-citrulline preincubated for 15 mins measured after 45 mins by liquid scintillation counting
- Assay type: cell-based
Measured parameter: IC50 (µM)
Value expressed in µM; do not type the unit.

CN(C)CCN1CCCc2cc(NC(=N)c3cccs3)cc(F)c21 ... 0.093
CN1CCCC1CCN1C(=O)CCc2cc(NC(=N)c3cccs3)ccc21 (racemic) ... 1.05
CCN(CC)CCN1CCCc2cc(NC(=N)c3cccs3)ccc21 ... 0.26
CN(C)CCN1C(=O)CCc2cc(NC(=N)c3cccs3)cc(F)c21 ... 3.36
N=C(Nc1ccc2c(c1)CCC(=O)N2CCCN1CCCC1)c1cccs1 ... 1.22

Query: Query the reported IC50 for Nitric oxide synthase 1 (Homo sapiens, UniProt P29475); item: N=C(Nc1ccc2c(c1)CCCN2CCCN1CCCC1)c1cccs1
Result: 0.086
